Experiment: Nrf2 qHTS screen for inhibitors: Validation (AID 493153)
Settings: A549 ARE-Fluc reporter, 18-24 h; measured here: cytotoxicity max response
Inconclusive results are not listed.
Measured viability change, listed per entry.
# number only, unit % dropped from output

Sample answers from the record:
compound: c1ccc2cc(CC3=NCCN3)ccc2c1
viability change / %: -5.88
--
compound: C=CCN(C1=NCCN1)c1c(Cl)cccc1Cl
viability change / %: -5.34
--
compound: CCCN1CCC[C@@H](c2cccc(O)c2)C1
viability change / %: -15.6
--
compound: COC(=O)N1CCN(C(=O)Cc2ccc(Cl)c(Cl)c2)C(CN2CCCC2)C1 (configuration not stated)
viability change / %: 0.492
--
compound: CCCCCCCCCCCCCC(=O)O[C@@H]1[C@@H](C)[C@@]2(O)[C@@H](C=C(CO)C[C@@]3(O)C(=O)C(C)=C[C@@H]23)C2C(C)(C)[C@@]21OC(C)=O (some centres not stated)
viability change / %: -19.6

Param item = `O=C(O)c1cc[c]([Hg][Cl])cc1` ; retrieve measured viability change.
-2.02

Repeat with `NCCCP(=O)(O)O`
0.331

Repeat with Oc1ccc2c3c1O[C@H]1c4[nH]c5ccccc5c4C[C@@]4(O)C(C2)N(CC2CC2)CCC314 (some centres not stated)
-8.87

Repeat with CC(N)c1cccc(Cl)c1Cl (configuration not stated)
5.17

Repeat with `C[C@@H]1O[C@H](C[N+](C)(C)C)CS1`
8.63

---

Tested on: CP286
Experiment: qHTS profiling for inhibitors of Plasmodium falciparum proliferation (AID 504749);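 note: 0% = DMSO vehicle and full inhibition = artemisinin control; nearly all actives have a fitted effect of over 60% in size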
Settings: P. falciparum in erythrocytes, SYBR Green DNA, 72 h; series mostly up to 28.7 µM
Results filed as inconclusive are left out. Calls of active or inactive are those of the source. The call rests on the fitted dose curve; in most records, active means well fitted inhibition curve with a large enough effect; inconclusive means small, poorly fitted or top-dose-only effect; inactive means flat fitted curve, though single readings scatter.
Thanks in advance; please answer with one of these: yes (1) for active, no (0) for inactive

Consider the worked cases shown below.
molecule: ClC1C(Cl)C(Cl)C(Cl)C(Cl)C1Cl (stereo not given)
target_desc: CP286
class_assignment: no (0)
//
molecule: CC(C)CCON=O
target_desc: CP286
class_assignment: no (0)
//
molecule: c1csc(C2(N3CCCCC3)CCCCC2)c1
target_desc: CP286
class_assignment: no (0)

For this molecule, state the assay outcome: `c1cc2c(c(NC3=NCCN3)c1)CCCC2`
no (0)

Repeat with CCCN1CCCC2Cc3[nH]ncc3CC21 (stereo not given)
no (0)

Repeat with `Cn1sc(Cl)cc1=O`
no (0)

Repeat with CCCC(C)(COC(N)=O)COC(=O)NC1CC1 (stereo not given)
no (0)

Repeat with `O=[N+]([O-])c1cc(I)c(O)c(I)c1`
no (0)

Repeat with `O=C1CCO1`
no (0)

Repeat with OC(c1ccccc1)(c1ccccc1)C1CN2CCC1CC2 (stereo not given)
no (0)

Repeat with FC(F)OC(F)(F)C(F)Cl (stereo not given)
no (0)

Repeat with `CCC(C)(S(=O)(=O)CC)S(=O)(=O)CC`
no (0)

---

Experiment: qHTS profiling for inhibitors of Plasmodium falciparum proliferation (AID 504749);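 note: 0% = DMSO vehicle and full inhibition = artemisinin control; nearly all actives have a fitted effect of over 60% in size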
Settings: P. falciparum in erythrocytes, SYBR Green DNA, 72 h; at 28.7 µM (top of the series); parasite line A
Inconclusive results are not listed.
recorded_endpoint: activity, negative = inhibition (%)
# number only, unit % dropped from output

Sample answers from the record:
compound: CN1c2ccccc2C(NCCCCCCC(=O)O)c2ccc(Cl)cc2S1(=O)=O (stereo not drawn)
test_result: 2.2
//
compound: CC(C)(O)C1C2OC(=O)C1C1(O)CC3OC34C(=O)OC2C14C (stereo not drawn)
test_result: 13.7
//
compound: Clc1ccccc1Cl
test_result: 6.5
//
compound: CC(=O)OO
test_result: 5.76
//
compound: CCCCNCC(O)c1ccc(O)cc1 (stereo not drawn)
test_result: -2.61

Param item = `C[C@]12CCC(=O)C[C@@H]1CC[C@@H]1[C@@H]2CC[C@]2(C)[C@@H](O)CC[C@@H]12` ; retrieve measured activity, negative = inhibition.
-12.4

Repeat with `O=[N+]([O-])c1ccccc1`
-4.98

Repeat with `O=P(O)(O)C(Cl)(Cl)P(=O)(O)O`
6.37

Repeat with `O=[N+]([O-])c1cc(I)c(O)c(I)c1`
-8.29

---

Biological target: ATPase family AAA domain-containing protein 5 (Homo sapiens) (UniProt Q96QE3)
Sequence (Q96QE3 whole entry, looked up, the tested form may be a part): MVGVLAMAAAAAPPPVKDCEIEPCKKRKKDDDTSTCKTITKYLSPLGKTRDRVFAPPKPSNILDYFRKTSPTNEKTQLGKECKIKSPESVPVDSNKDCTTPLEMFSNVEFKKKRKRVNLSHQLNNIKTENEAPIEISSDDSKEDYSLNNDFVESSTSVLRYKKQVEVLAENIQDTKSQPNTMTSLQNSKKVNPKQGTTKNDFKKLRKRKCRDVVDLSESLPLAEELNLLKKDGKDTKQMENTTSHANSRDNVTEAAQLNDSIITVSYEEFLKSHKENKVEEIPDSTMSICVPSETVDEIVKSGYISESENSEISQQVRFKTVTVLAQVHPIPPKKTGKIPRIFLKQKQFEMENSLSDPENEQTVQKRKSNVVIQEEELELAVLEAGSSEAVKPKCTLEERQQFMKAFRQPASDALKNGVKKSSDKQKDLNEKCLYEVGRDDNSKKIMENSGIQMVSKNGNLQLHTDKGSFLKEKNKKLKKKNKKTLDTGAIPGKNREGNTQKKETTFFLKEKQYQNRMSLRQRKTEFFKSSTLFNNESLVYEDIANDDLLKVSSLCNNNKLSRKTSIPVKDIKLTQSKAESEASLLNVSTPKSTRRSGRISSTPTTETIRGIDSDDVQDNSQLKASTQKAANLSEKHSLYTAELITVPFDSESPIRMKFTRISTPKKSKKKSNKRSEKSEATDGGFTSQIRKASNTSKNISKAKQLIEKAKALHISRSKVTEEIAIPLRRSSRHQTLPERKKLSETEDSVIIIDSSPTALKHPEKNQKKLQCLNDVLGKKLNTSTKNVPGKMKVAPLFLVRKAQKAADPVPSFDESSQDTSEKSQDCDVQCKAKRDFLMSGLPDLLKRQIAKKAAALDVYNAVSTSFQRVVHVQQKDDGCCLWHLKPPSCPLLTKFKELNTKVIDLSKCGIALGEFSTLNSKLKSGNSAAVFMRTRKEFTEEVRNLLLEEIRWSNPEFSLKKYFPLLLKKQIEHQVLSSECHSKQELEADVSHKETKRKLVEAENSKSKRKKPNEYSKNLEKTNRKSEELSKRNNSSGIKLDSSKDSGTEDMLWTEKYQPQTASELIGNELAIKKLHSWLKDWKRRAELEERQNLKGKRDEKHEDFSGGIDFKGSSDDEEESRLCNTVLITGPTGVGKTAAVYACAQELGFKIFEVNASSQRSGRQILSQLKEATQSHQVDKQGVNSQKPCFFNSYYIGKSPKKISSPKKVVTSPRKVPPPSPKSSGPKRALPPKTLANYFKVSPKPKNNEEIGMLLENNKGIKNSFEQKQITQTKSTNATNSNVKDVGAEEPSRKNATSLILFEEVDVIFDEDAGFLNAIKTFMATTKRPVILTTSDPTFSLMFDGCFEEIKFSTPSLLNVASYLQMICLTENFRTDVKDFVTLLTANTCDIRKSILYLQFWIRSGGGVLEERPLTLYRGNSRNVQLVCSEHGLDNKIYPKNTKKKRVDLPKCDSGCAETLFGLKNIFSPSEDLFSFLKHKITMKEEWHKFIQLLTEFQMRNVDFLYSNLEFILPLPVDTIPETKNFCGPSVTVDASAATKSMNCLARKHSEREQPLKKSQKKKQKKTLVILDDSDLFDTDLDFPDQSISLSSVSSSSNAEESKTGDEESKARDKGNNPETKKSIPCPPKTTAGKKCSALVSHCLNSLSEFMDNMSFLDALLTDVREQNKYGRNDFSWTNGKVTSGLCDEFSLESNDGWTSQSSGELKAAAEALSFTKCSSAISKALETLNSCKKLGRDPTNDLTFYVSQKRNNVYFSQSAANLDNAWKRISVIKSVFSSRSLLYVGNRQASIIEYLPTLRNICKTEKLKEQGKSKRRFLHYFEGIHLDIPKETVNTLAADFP
Test: Validation screen for small molecules that inhibit ELG1-dependent DNA repair in human embryonic kidney (HEK293T) cells expressing luciferase-tagged ELG1 (AID 493107); note: nearly all actives have a fitted effect of over 70% in size
Conditions: HEK293T ELG1-luciferase level, luminescence, 5-fluorouridine co-treatment, 16 h; series mostly up to 46.1 µM
Inconclusive results are not listed. Activity calls are given as the source filed them. The call rests on the fitted dose curve; in most records, active means well fitted inhibition curve with a large enough effect; inconclusive means small, poorly fitted or top-dose-only effect, or effect the other way; inactive means flat fitted curve, though single readings scatter.
Thanks in advance; please answer with one of these: Yes for active, No for inactive

Consider the worked cases shown below.
compound: CN1CCC(c2c[nH]c3ccc(O)cc23)CC1
class_assignment: No

compound: CNc1ccc2oc(C[C@H]3O[C@@]4(CC[C@H]3C)O[C@H]([C@H](C)C(=O)c3ccc[nH]3)[C@H](C)C[C@H]4C)nc2c1C(=O)O
class_assignment: Yes

compound: COc1ccc2[nH]c3c(c2c1)CCNC3
class_assignment: No

For this compound, state the assay outcome: C=CCN1CCC23c4c5ccc(O)c4O[C@H]2C(=O)CC[C@@]3(O)C1C5 (some centres not stated)
No

Repeat with `c1ccc2c(c1)[I+]c1ccccc1-2`
Yes

Repeat with `CCCN(CCC)C1Cc2cc(OC)c(OC)cc2C1`
No

Repeat with NC(C(=O)O)c1cc(=O)[nH]o1 (configuration not stated)
No

---

Test system: CP192
Experiment: qHTS profiling for inhibitors of Plasmodium falciparum proliferation (AID 504749);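 note: 0% = DMSO vehicle and full inhibition = artemisinin control; nearly all actives have a fitted effect of over 60% in size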
Conditions: P. falciparum in erythrocytes, SYBR Green DNA, 72 h; series mostly up to 28.7 µM
Records with an inconclusive call do not appear. The source made the active and inactive calls. Calls follow the shape of the dose curve; as a rule, active = well fitted inhibition curve with a large enough effect; inconclusive = small, poorly fitted or top-dose-only effect; inactive = flat fitted curve, though single readings scatter.
Thanks in advance; please answer with one of these: true for active, false for inactive

Consider the worked cases shown below.
molecule: CCOC(=O)c1ccccc1C(=O)OCC
class_assignment: false
//
molecule: O=CC=O
class_assignment: false
//
molecule: CC(=O)OO
class_assignment: false
//
molecule: CCOP(=O)(OCC)O/C(=C/Cl)c1ccc(Cl)cc1Cl
class_assignment: false
//
molecule: c1ccc2cc(CC3=NCCN3)ccc2c1
class_assignment: false
//
molecule: CCON=O
class_assignment: false

For this molecule, state the assay outcome: `COC1=CC=C2[C@H]3Cc4ccc(OC)c5c4[C@@]2(CCN3C)[C@H]1O5`
false

Repeat with CCC(N)Cc1c[nH]c2ccccc12 (stereo not given)
false

Repeat with CCCC(C)C1(CC)C(=O)NC(=O)NC1=O (stereo not given)
false

---

Measured activity, negative = cell killing, listed per entry.
Test: Drug repurposing screens with cells derived from glioblastoma tumor samples (AID 1345199); note: % is set by controls: 0 for no effect and ±100 for the full control effect; nearly all actives have a fitted effect of over 40% in size
Conditions: GBM patient neurospheres viability, ATP luminescence, 48 h; at 46.1 µM (top of the series); tumour line C
Results filed as inconclusive are left out.
# number only, unit % dropped from output

Sample answers from the record:
molecule: O=[N+]([O-])c1cc(I)c(O)c(I)c1
recorded_endpoint: activity, negative = cell killing
test_result: -4.29
--
molecule: C[C@H]1CC[C@@H]2[C@@H](C)[C@H]3[C@H](C[C@H]4[C@@H]5CC=C6CC(O[C@@H]7O[C@H](CO)[C@H](O)[C@H](O[C@@H]8O[C@H](CO)[C@@H](O)[C@H](O)[C@H]8O)[C@H]7O[C@H]7O[C@@H](C)[C@H](O)[C@@H](O)[C@H]7O)CC[C@]6(C)[C@H]5CC[C@]34C)N2C1 (stereo partly specified)
recorded_endpoint: activity, negative = cell killing
test_result: -1.25

Param item = `CCC(=O)O[C@]1(c2ccccc2)CCN(C)C[C@H]1C` ; retrieve measured activity, negative = cell killing.
-18.2

Repeat with `CCN(CC)C(=O)N[C@H]1C[C@@H]2c3cccc4[nH]cc(c34)C[C@H]2N(C)C1`
-20.3

Repeat with `C[C@]12C=CC(=O)C=C1CC[C@@H]1[C@@H]2CC[C@]2(C)OC(=O)CC[C@@H]12`
1.2

Repeat with `O=[N+]([O-])C(Br)(CO)CO`
-7.96

---

System: TAB109
Test: qHTS profiling for inhibitors of Plasmodium falciparum proliferation (AID 504749);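 note: 0% = DMSO vehicle and full inhibition = artemisinin control; nearly all actives have a fitted effect of over 60% in size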
Conditions: P. falciparum in erythrocytes, SYBR Green DNA, 72 h; series mostly up to 28.7 µM
Results filed as inconclusive are left out. The source made the active and inactive calls. Calls follow the shape of the dose curve; as a rule, active = well fitted inhibition curve with a large enough effect; inconclusive = small, poorly fitted or top-dose-only effect; inactive = flat fitted curve, though single readings scatter.
Thanks in advance; please answer with one of these: 1 = active, 0 = inactive

Consider the worked cases shown below.
compound: c1cc2c(c(NC3=NCCN3)c1)CCCC2
class_assignment: 0

compound: CNC1(c2ccccc2Cl)CCCCC1=O (stereo unspecified)
class_assignment: 0

For this compound, state the assay outcome: COCC(C)N(C(=O)CCl)c1c(C)csc1C (stereo unspecified)
0

Repeat with O=C1C2CC=CCC2C(=O)N1SC(Cl)(Cl)Cl (stereo unspecified)
0

Repeat with CCNC(C)Cc1cccc(C(F)(F)F)c1 (stereo unspecified)
0

Repeat with `[O]=[Cr](=[O])([OH])[O][Cr](=[O])(=[O])[OH]`
0

Repeat with O=C(NCNC(=O)NC1C(=O)NC(=O)N1CO)NC1C(=O)NC(=O)N1CO (stereo unspecified)
0

Repeat with `[O]=[Cd]`
0

Repeat with CCCN1CCCC2Cc3[nH]ncc3CC21 (stereo unspecified)
0

Repeat with `Cc1sc2ccccc2c1CC1=NCCN1`
0

Repeat with FC(F)OC(F)(F)C(F)Cl (stereo unspecified)
0

Repeat with `O=C(OCCN1CCCCC1)C(O)(c1ccccc1)c1ccccc1`
0

Repeat with `C[C@]12CCC(=O)C[C@@H]1CC[C@@H]1[C@@H]2CC[C@]2(C)[C@@H](O)CC[C@@H]12`
0

These data points were gathered from PubChem BioAssay (NCATS).
